Recorded values, source patent US12257247B2.

# reported Dmax; entries follow
- Test system: VAV1 (Homo sapiens, UniProt P15498+Q96SW2)
- Construct: A heterozygous VAV1 C-terminal HiBiT knock-in pool was generated at Monte Rosa Therapeutics from a clonal Jurkat cell; endogenous in cells; host or cells: Jurkat clone stably expressing LgBiT, homozygous GSPT1-G575N; heterozygous VAV1-HiBiT knock-in pool
- Experimental protocol: VAV1 degradation activity, VAV1-HiBiT knock-in Jurkat luminescence assay (Example A, Table 1)
- Type: cell-based
- Stated conditions: Jurkat, VAV1-HiBiT knock-in Jurkat cells, luminescence read at 6 and 24 hours; read-out: VAV1 Dmax %
Write it as a number; the unit % goes unstated.

Example entries begin here.
Compound	Observed value
O=C1CCC(c2cccc(-c3ccc(N4C(=O)Cc5ccccc54)cc3)c2Cl)C(=O)N1 (centres unmarked)	96.2
O=C1CCC(c2cccc(-c3ccc(C(=O)N4CCCCC4)cc3)c2Cl)C(=O)N1 (centres unmarked)	96.6
CNc1ccc(-c2cccc(C3CCC(=O)NC3=O)c2Cl)cc1C (centres unmarked)	96
O=C1CCC(c2cccc(-c3ccc(-n4c(C(F)F)cccc4=O)cc3)c2Cl)C(=O)N1 (centres unmarked)	98.7
O=C1CCC(c2cccc(-c3ccc(Cc4nccc(C(F)F)n4)cc3)c2Cl)C(=O)N1 (centres unmarked)	95.2
O=C1CCC(c2cccc(-c3ccc(N4C(=O)CCCC4=O)cc3)c2Cl)C(=O)N1 (centres unmarked)	90.4
O=C1CCC(c2cccc(-c3ccc(CN4CCc5ocnc5C4=O)cc3)c2Cl)C(=O)N1 (centres unmarked)	82.8

Next, consider the following compound.
Measured Dmax, O=C1CCC(c2cccc(-c3ccc(Cc4ncco4)c(F)c3)c2Cl)C(=O)N1 (centres unmarked) : 97.8

====

# reported DC50; entries follow
- Test system: VAV1 (Homo sapiens, UniProt P15498+Q96SW2)
- Construct: A heterozygous VAV1 C-terminal HiBiT knock-in pool was generated at Monte Rosa Therapeutics from a clonal Jurkat cell; endogenous in cells; host or cells: Jurkat clone stably expressing LgBiT, homozygous GSPT1-G575N; heterozygous VAV1-HiBiT knock-in pool
- Experimental protocol: VAV1 degradation activity, VAV1-HiBiT knock-in Jurkat luminescence assay (Example A, Table 1)
- Format: cell-based
- Stated conditions: VAV1-HiBiT knock-in Jurkat cells, luminescence read at 6 and 24 hours; read-out: VAV1 DC50
Write it as a number; the unit µM goes unstated.

Example entries begin here.
Compound	DC50 / µM
CN1CCN(c2ccc(-c3cccc(C4CCC(=O)NC4=O)c3Cl)cc2)C(=O)C1 (centres unmarked)	0.0172
CC1CCN(Cc2ccc(-c3cccc(C4CCC(=O)NC4=O)c3Cl)cc2)C1=O (centres unmarked)	0.0169
O=C1CCC(c2cccc(-c3ccc(CN4CC5CCCN5CC4=O)cc3)c2Cl)C(=O)N1 (centres unmarked)	0.193

Measured DC50, O=C1CCC(c2cccc(-c3ccc(N4CCN(CC(F)F)CC4=O)cc3)c2Cl)C(=O)N1 (centres unmarked) : 0.00983

====

- Test system: VAV1 (Homo sapiens, UniProt P15498+Q96SW2)
- Construct: A heterozygous VAV1 C-terminal HiBiT knock-in pool was generated at Monte Rosa Therapeutics from a clonal Jurkat cell; endogenous in cells; host or cells: Jurkat clone stably expressing LgBiT, homozygous GSPT1-G575N; heterozygous VAV1-HiBiT knock-in pool
- Experimental protocol: VAV1 degradation activity, VAV1-HiBiT knock-in Jurkat luminescence assay (Example A, Table 1)
- Type: cell-based
- Stated conditions: VAV1-HiBiT knock-in Jurkat cells, luminescence read at 6 and 24 hours; read-out: VAV1 DC50 (nM), class
# reported DC50; entries follow

Compound	DC50
O=C1CCC(c2cccc(-c3ccc(CN4CCOC4=O)cc3)c2Cl)C(=O)N1 (centres unmarked)	100 to 1000 nM
CN1CC(=O)N(Cc2ccc(-c3cccc(C4CCC(=O)NC4=O)c3Cl)cc2)c2cnccc21 (centres unmarked)	100 to 1000 nM
Cn1ccc(CCc2ccc(-c3cccc(C4CCC(=O)NC4=O)c3Cl)cc2)n1 (centres unmarked)	≤ 100 nM
CC1CCC(F)(F)C(=O)N1Cc1ccc(-c2cccc(C3CCC(=O)NC3=O)c2Cl)cc1 (centres unmarked)	≤ 100 nM

Considering CN1Cc2cccc(-c3ccc(-c4cccc(C5CCC(=O)NC5=O)c4Cl)cc3)c2C1=O (centres unmarked) , its DC50 with VAV1 (Homo sapiens, UniProt P15498+Q96SW2) was recorded as ≤ 100 nM

Considering Cc1cccc(=O)n1-c1ccc(-c2cccc(C3CCC(=O)NC3=O)c2Cl)cc1 (centres unmarked) , its DC50 with VAV1 (Homo sapiens, UniProt P15498+Q96SW2) was recorded as ≤ 100 nM

Considering O=C1CCC(c2cccc(-c3ccc4c(c3)CCCO4)c2Cl)C(=O)N1 (centres unmarked) , its DC50 with VAV1 (Homo sapiens, UniProt P15498+Q96SW2) was recorded as ≤ 100 nM

Considering Cn1ccc(Cc2nn(C)c3cc(-c4cccc(C5CCC(=O)NC5=O)c4Cl)ccc23)n1 (centres unmarked) , its DC50 with VAV1 (Homo sapiens, UniProt P15498+Q96SW2) was recorded as ≤ 100 nM

Considering O=C1CCC(c2cccc(-c3cnc(N4C(=O)CCC45CC5)c(F)c3)c2Cl)C(=O)N1 (centres unmarked) , its DC50 with VAV1 (Homo sapiens, UniProt P15498+Q96SW2) was recorded as 100 to 1000 nM

Considering N#Cc1cc(-c2cccc(C3CCC(=O)NC3=O)c2Cl)ccc1O (centres unmarked) , its DC50 with VAV1 (Homo sapiens, UniProt P15498+Q96SW2) was recorded as 100 to 1000 nM

Considering O=C1CCC(c2cccc(-c3ccc(N4C(=O)CCCC4C(F)F)cc3)c2Cl)C(=O)N1 (centres unmarked) , its DC50 with VAV1 (Homo sapiens, UniProt P15498+Q96SW2) was recorded as ≤ 100 nM

Considering O=C1CCC(c2cccc(-c3ccc(N4C(=O)OCCC4C(F)(F)F)cc3)c2Cl)C(=O)N1 (centres unmarked) , its DC50 with VAV1 (Homo sapiens, UniProt P15498+Q96SW2) was recorded as ≤ 100 nM

Considering `O=C1CC[C@@H](c2cccc(-c3ccc(-n4ccccc4=O)cc3)c2Cl)C(=O)N1` , its DC50 with VAV1 (Homo sapiens, UniProt P15498+Q96SW2) was recorded as ≤ 100 nM

Considering CN1CCN(c2ccc(-c3cccc(C4CCC(=O)NC4=O)c3Cl)cc2)C1=O (centres unmarked) , its DC50 with VAV1 (Homo sapiens, UniProt P15498+Q96SW2) was recorded as 100 to 1000 nM

Considering O=C1CCC(c2cccc(-c3ccc(CN4CCn5ccnc5C4=O)cc3)c2Cl)C(=O)N1 (centres unmarked) , its DC50 with VAV1 (Homo sapiens, UniProt P15498+Q96SW2) was recorded as 100 to 1000 nM

Considering N#Cc1ccc(-c2cccc(C3CCC(=O)NC3=O)c2Cl)cc1N (centres unmarked) , its DC50 with VAV1 (Homo sapiens, UniProt P15498+Q96SW2) was recorded as 100 to 1000 nM

Considering O=C1CCC(c2cccc(-c3ccc(Cc4ncco4)nc3)c2Cl)C(=O)N1 (centres unmarked) , its DC50 with VAV1 (Homo sapiens, UniProt P15498+Q96SW2) was recorded as 100 to 1000 nM
